tested.on: human YTHDF2 YTH domain (Homo sapiens)
Construct: the human YTHDF2 YTH domain (amino acids 383–553, PDB: 4WQN)
Sequence (Q9Y5A9 383-553): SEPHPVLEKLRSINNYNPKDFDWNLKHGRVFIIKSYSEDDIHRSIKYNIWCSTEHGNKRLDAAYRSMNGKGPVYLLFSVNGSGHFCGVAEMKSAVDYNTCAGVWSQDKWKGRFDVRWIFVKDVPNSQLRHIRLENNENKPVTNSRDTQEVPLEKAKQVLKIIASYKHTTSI
assay.method.text: Tryptophan fluorescence quenching assay
measured.attribute: EC50 (µM)

compound: O=c1c2ccccc2[se]n1-c1ccccc1 [Compound 1, 2-phenyl-1,2-benzisoselenazol-3(2H)-one]
tested.on: human YTHDF2 YTH domain (Homo sapiens)
measured.attribute: EC50
units.of.measure: µM
observed.result: 1.66

====

tested.on: YTHDF1 YTH domain (Homo sapiens, UniProt Q9BYJ9)
Construct: The human YTHDF1 YTH domain (amino acids 365–554, PDB: 4RCJ); host or cells: E. coli BL21(DE3)
Sequence (Q9BYJ9 365-554): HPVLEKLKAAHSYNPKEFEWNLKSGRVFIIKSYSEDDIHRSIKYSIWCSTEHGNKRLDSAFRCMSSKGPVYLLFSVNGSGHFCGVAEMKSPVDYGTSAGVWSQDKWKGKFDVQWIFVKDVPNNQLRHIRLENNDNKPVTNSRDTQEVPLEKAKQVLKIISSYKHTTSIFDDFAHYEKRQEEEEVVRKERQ
assay.method.text: Tryptophan fluorescence quenching assay
Type: binding
assay.setup: Table 1, read-out: EC50 (μM) (Tryptophan quenching)
In this section, each of the compounds is paired with its reported EC50.
measured.attribute: EC50 (µM)

compound: CCN(CC)CCn1[se]c2ccccc2c1=O
observed.result: 1.48

compound: O=c1c2ccccc2sn1-c1ccccc1 [Compound 2, 2-Phenylbenzo[d]isothiazol-3(2H)-one]
observed.result: 1.76

compound: O=C(NCCN1CCOCC1)c1ccccc1SSc1ccccc1C(=O)NCCN1CCOCC1
observed.result: 2.9

compound: O=c1c2ccccc2sn1-c1ccc(F)cc1
observed.result: 1.63
